# System: BT-549 breast
# assay.text: NCI tumour cell line growth inhibition, 48 h
For each record, write down the corresponding TGI.

compound | study.target | measurement
CN(C)c1cc2ccccc2oc1=O | BT-549 breast | > 100 µM
FC(F)(F)c1cccc(-c2nc3nc(Cl)c(Cl)nc3[nH]2)c1 | BT-549 breast | 51.8 µM
O=[N+]([O-])c1ccccc1OCCOc1ccccc1[N+](=O)[O-] | BT-549 breast | > 100 µM
C=CCC1(C#N)C(=S)NC2=C(C(=O)CC(C)(C)C2)C1c1ccccc1 (stereo unspecified) | BT-549 breast | > 100 µM
c1ccc(NN(Cc2cnccn2)c2ccccc2)cc1 | BT-549 breast | > 100 µM
CCn1nc(C)c2c1C(=O)NCC(=O)N2 | BT-549 breast | > 100 µM
CC1=C([Se]CC(OC(=O)CC[Se]c2ccccc2)C(=O)NC(C)(C)C)C(=O)c2ccccc2C1=O (stereo unspecified) | BT-549 breast | 3.15 µM
CO/N=C(\COc1ccc2c(c1)[nH]c1ccccc12)c1ccc(OC)cc1 | BT-549 breast | > 100 µM

Consider the following items and state reported TGI for each.
1. Oc1cc(Cc2ccccc2)c(Cc2ccccc2)cc1O
2. O=C(O)c1nc(NCc2nc3cc(Cl)ccc3o2)n[nH]1
3. CC(=O)c1c(-c2cccc3ccccc23)c(C#N)c(=S)n(C2OC(CO)C(O)C(O)C2O)c1C (stereo unspecified)

Solution:
1. > 10 µM
2. > 100 µM
3. > 100 µM

* * *

# Tested on: MCF7 breast
# assay.text: NCI tumour cell line growth inhibition, 48 h
recorded.endpoint: TGI

molecule | study.target | measurement
O=C(/C=C(/C=C/c1ccc2[nH]ccc2c1)OB(F)F)/C=C/c1ccc2[nH]ccc2c1 | MCF7 breast | 15 µM
O=C1C=CC(=O)c2c1ccc1c3ccccc3n(Cc3ccc([N+](=O)[O-])cc3)c21 | MCF7 breast | > 100 µM
COC1CC(N)(c2ccccc2)C(O)C(C)O1 (stereo not given) | MCF7 breast | > 100 µM

For each listed entry, give its TGI.
1. CCOC(=O)Oc1c(OC)cc(C(=O)c2ccc(OC)c(O)c2OC)cc1OC
2. CO/N=C(\COc1ccc2c(c1)[nH]c1ccccc12)c1ccc(OC)cc1

Solution:
1. > 100 µM
2. > 100 µM

* * *

# Test system: KM12 colon
# assay.text: NCI tumour cell line growth inhibition, 48 h
recorded.endpoint: TGI

compound | TGI
COC(=O)Cc1cc(O)c2c(c1O)C(=O)c1ccccc1C2=O | > 100 µM

Give me TGI for each of these compounds, listed below.
1. [N-]=[N+]=Nc1c(Cc2ccccc2)c(Cl)nc2ccccc12
2. O=c1cc(-c2cccs2)[nH]c2cc3c(cc12)OCO3
3. CC(=O)O[C@H]1CC(C)(C)C(=C=C/C(C)=C/C=C/C=C/C=C(C)/C=C2C=C(/C=C/[C@@]34O[C@]3(C)C[C@@H](O)CC4(C)C)C(=O)O/2)[C@](C)(O)C1
4. C1CSCCCSCCCSCCCSCCCSCCCSCCCSCCCSC1
5. N#C[Se]Cc1cc(-c2ccccc2)n(-c2ccc(S(N)(=O)=O)cc2)n1
6. COC(=O)C1=CO[C@@H](OC2CC(CO)C(O)C(O)C2O)[C@@H]2[C@@H](C)[C@@H](OC(=O)/C=C/c3ccccc3)[C@@H](O)[C@H]12 (some centres undefined) (tested in a mixture with another compound)
7. COC(=O)/C(=N\NC(C)(C)C)C(C(=O)OC)C(=O)C(=O)Nc1cc(Cl)ccc1Cl (centres undefined)
8. FC(F)(F)c1cccc(-c2nc3nc(Cl)c(Cl)nc3[nH]2)c1

Solution:
61.2 µM
> 100 µM
46.5 µM
> 100 µM
3.22 µM
> 100 µM
> 100 µM
11 µM

Provide reported TGI for each item, in the same order as listed.
1. CCn1nc(C)c2c1C(=O)NCC(=O)N2
2. CCSC1=NC2C(N(CC)C(=O)N2CC)N1/N=C/C=C/c1ccccc1[N+](=O)[O-] (centres undefined)
3. CCN1C(=O)N(CC)C2C1NN=c1s/c(=C\c3ccc(Cl)cc3Cl)c(=O)n12 (centres undefined)
4. Cc1ccc(C(=N)c2ccccc2Cc2cccc3ccccc23)c2ccccc12
5. O=C1OCC2=C1C(c1cccc(F)c1)c1cc3c(cc1N2CCO)OCO3 (centres undefined)
6. c1ccc(NN(Cc2cnccn2)c2ccccc2)cc1

Solution:
> 100 µM
> 37.7 µM
> 32.6 µM
> 100 µM
> 50 µM
> 100 µM

For each entry beneath this line, provide reported TGI.
1. COc1ccc(-c2noc(C(=O)O)c2-c2cc(OC)c(OC)c(OC)c2)cc1
2. CN(C)CCNC(=O)Cn1ccc(=O)c2cc([N+](=O)[O-])ccc21
3. CC(N=NNc1ccc(-c2nc3ccccc3[nH]2)cc1)C(=O)O (centres undefined)

Solution:
> 100 µM
> 100 µM
> 100 µM

Exercise: Recorded TGI for O=C(NCCCOC(=O)CCCCCCCCC(=O)OCCCNC(=O)NC(=O)c1c[nH]c(=O)[nH]c1=O)NC(=O)c1c[nH]c(=O)[nH]c1=O , please?
Solution: > 100 µM
